growth inhibition listing for selected compounds.
# PROCEDURE SUMMARY: NCI Yeast Anticancer Drug Screen. Data for the rad50 strain (AID 155);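 note: 0% = growth of vehicle-only cultures of the same strain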
# RECORDED CONDITIONS: S. cerevisiae rad50 strain growth inhibition; at 50.0 µM; hits give high values
This is part of a sample that, as a whole, favours compounds with a hit. Of some 79,000 tested, about 15% had one in any assay.
Number only, in %; omit the unit.

Would you please look over these solved cases?
Inquiry: Which growth inhibition reading was recorded for the compound O=C(O)CCC(=O)CCC(=O)c1ccc(O)c2ncccc12 ?
Reply text: -6.55

Inquiry: Could you share which growth inhibition value was measured for [N-]=[N+]=Nc1ccc2[nH]c3ccccc3c(=O)c2c1 ?
Reply text: 17.9

# context switch: different compound, same growth inhibition
Inquiry: Bench note: what growth inhibition did O=c1oc2ccc3ccccc3c2cc1-c1c[nH]c2ccccc12 show?
Reply text: 10.7

====

# PROCEDURE SUMMARY: NCI Yeast Anticancer Drug Screen. Data for the rad50 strain (AID 155);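 note: 0% = growth of vehicle-only cultures of the same strain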
# RECORDED CONDITIONS: S. cerevisiae rad50 strain growth inhibition; at 50.0 µM; hits give high values
# Experimental: Growth inhibition of yeast strains with defined genetic alterations is measured as a screen for potential anti-cancer activity. Selected strains with alterations in DNA damage repair or cell cycle control were exposed to compounds and growth inhibition was measured relative to vehicle treated controls. The strain used in this assay is rad50
About 79,000 compounds went through this panel and 15% of them were active in at least one assay; those are over-represented in the sample as a whole.
Please mark True if the recorded growth inhibition is equal to or greater than 10%, and False if it falls below.

Answered examples (5):
Inquiry: Determine whether measured growth inhibition meets or exceeds 10% for CC1=NC(=O)CNN1C1=NNC2(C(=O)N1)c1ccccc1-c1ccccc12
Reply text: False

Inquiry: Answer whether growth inhibition of CCOC(=O)CC/C(=C\NC(=O)c1ccccc1)NC(=O)c1ccccc1 is greater than or equal to 10%.
Reply text: False

Inquiry: Hi, just wondering whether COc1ccc2c3c([nH]c2c1[N+](=O)[O-])C(C)N(C)CC3 (stereo not given) shows growth inhibition of 10% or higher.
Reply text: False

Inquiry: Could you please find out whether CC(=O)OCCOCNC(=S)NN has growth inhibition that meets 10% or exceeds it?
Reply text: False

Inquiry: Form field: growth inhibition at least 10%? Entry: CCCCN(C(C)=O)c1ccccc1
Reply text: False

Continuing:
Inquiry: Could you verify whether the entry CC12CCC/C(=N\NC(N)=S)C1C(=O)NC(=O)C2 (stereo not given) shows growth inhibition of no less than 10%?
Reply text: False

Inquiry: Would you say NC(N)=N/N=C/C(=N\N=C(N)N)C(O)CO (stereo not given) shows growth inhibition at minimum 10%?
Reply text: True

====

# PROCEDURE SUMMARY: NCI Yeast Anticancer Drug Screen. Data for the mec2-1 strain (AID 157)
# RECORDED CONDITIONS: S. cerevisiae mec2-1 strain, at 50.0 µM, hits give high values
The panel holds about 79,000 compounds, 15% with a hit somewhere; the sample as a whole holds those more often.
Reported growth inhibition values for the following compounds.
Write the number in % without appending the unit.

Inquiry: I have this compound here, CN(C)C(=S)/N=c1\ssc(=S)n1C1CCCCC1 , and I need its recorded growth inhibition.
Reply text: 2.55

Inquiry: Give the measured growth inhibition of CCN1C(=O)NC(C)(c2ccccc2)C1=O (configuration not stated) .
Reply text: 3.35

Inquiry: What does the data say about its growth inhibition? Entry: CN(C)/C=C(/N=C(C#N)C#N)C1OCCO1
Reply text: 8.55

Now for the compound whose growth inhibition we want.
Inquiry: Name the reported growth inhibition value associated with the compound CC(=O)C(N=Nc1nc2ccccc2[nH]1)C(C)=O
Reply text: 14.1
